Assay: Aqueous solubility in water
Type: physicochemical
Conditions: buffer
experimental-endpoint: solubility

>>> print(df.to_string())
                            compound_string  experimental_endpoint  endpoint_result
0  CC(C)[C@]12O[C@H]1[C@@H]1O[C@@]13[C@H]1CCC4=C(COC4=O)[C@@H]1C[C@@H]1O[C@@]13[C@@H]2OC(=O)CNCCN             solubility          Soluble
1  CC(C)[C@]12O[C@H]1[C@@H]1O[C@@]13[C@H]1CCC4=C(COC4=O)[C@@H]1C[C@@H]1O[C@@]13[C@@H]2OC(=O)CNc1nccc(-c2cccnc2)n1             solubility          Soluble
